Answer each item with its documented cell viability.
Test system: Calu-3
Protocol Description: cell viability relative to DMSO; higher = less toxic
Assay Setup: 72 h; 10 nM
Structures can show the parent of a compound that is named as a salt.

Query: # returns recorded cell viability (system: Calu-3) for CCCNC(=O)Nc1ccc(Oc2ncnc3cc(OC)c(OC)cc23)cc1Cl [KRN-633]
Response: 101%

Query: Test system Calu-3; read-out cell viability; what value for CCc1cnn2c(NCc3ccc[n+]([O-])c3)cc(N3CCCC[C@H]3CCO)nc12 [dinaciclib] ?
Response: 83.2%

Query: API: value(readout= cell viability, system= Calu-3, query= CNC(=O)c1ccc2cc([C@@]3(O)CCn4cncc43)ccc2c1 [orteronel] )
Response: 108%

Query: Fill in the recorded cell viability for this compound, with Calu-3 as test system: Nc1ccn([C@H]2CO[C@@H](CO)S2)c(=O)n1 [apricitabine]
Response: 101%

Query: Give the reported cell viability for `Cc1cc(C)c(N)c(C#Cc2cccc(F)c2)n1` (system: Calu-3).
Response: 102%

Query: Reported cell viability for Calu-3, given CCN(CC)S(=O)(=O)c1ccc(C(=O)O)cc1 [etebenecid] ?
Response: 93.9%

Query: Given the entry CC(C)(COP(=O)(O)OP(=O)(O)OC[C@H]1O[C@@H](n2cnc3c(N)ncnc32)[C@H](O)[C@@H]1OP(=O)(O)O)[C@@H](O)C(=O)NCCC(=O)NCCS [coenzyme-A] , what cell viability was observed with Calu-3?
Response: 101%

Query: Form field: cell viability recorded for CC(C)CN(C[C@@H](OP(=O)(O)O)[C@H](Cc1ccccc1)NC(=O)O[C@H]1CCOC1)S(=O)(=O)c1ccc(N)cc1 [fosamprenavir] with Calu-3 (enter value)
Response: 103%

Query: What reported cell viability corresponds to Clc1cccc(Cl)c1NC1=NCCN1 [clonidine] on Calu-3?
Response: 87.9%

Query: # returns recorded cell viability (system: Calu-3) for Cc1cc(C2CCCCC2)n(O)c(=O)c1 [ciclopirox]
Response: 109%

Query: Give the reported cell viability for `Fc1ccc(CN2CCC(Nc3ccc(C(F)(F)F)nn3)CC2)cc1F` (system: Calu-3).
Response: 97.6%

Query: Recorded cell viability for CN1[C@@H]2CC[C@H]1C[C@@H](OC(=O)C(CO)c1ccccc1)C2 (stereo partly drawn) [ATROPINE SULFATE] with Calu-3, please?
Response: 102%

Query: Under Calu-3: cell viability value of CN(C[C@@H]1COCCO1)S(=O)(=O)Nc1ccc2ccc3ncc(-c4cnn(C)c4)cc3c(=O)c2c1 [MK-2461] ?
Response: 89%

Query: Which cell viability is reported with Calu-3 for this entry: O=C(CCCCCCCC(=O)NCCO)NCCO [adelmidrol] ?
Response: 97.1%

Query: Provide the documented cell viability with Calu-3 as the system for CNC(=O)c1cc(Oc2ccc(NC(=O)Nc3ccc(Cl)c(C(F)(F)F)c3)cc2)ccn1 [sorafenib]
Response: 104%

Query: Given the entry O=C(O)[C@H](O)[C@@H](O)[C@H](O)[C@H](O)CO [sodium-gluconate] , what cell viability was observed with Calu-3?
Response: 96.6%

Query: Could you share what cell viability was measured for Cn1c(=O)c(F)c(Nc2ccc(I)cc2F)c2c(=O)n(C[C@@H](O)CO)cnc21 [TAK-733] , tested on Calu-3?
Response: 74.4%

Query: Record lookup: for Calu-3, what cell viability belongs to CC1=C(CCC(=O)O)c2cc3[nH]c(cc4nc(cc5[nH]c(cc1n2)c(C)c5C(C)O)C(C)=C4C(C)O)c(C)c3CCC(=O)O (stereo not drawn) [hematoporphyrin] ?
Response: 89%

Query: Notebook entry, Calu-3 assay: cell viability of CSCC[C@H](NC(=O)[C@H](Cc1ccccc1)NC(=O)CNC(=O)CNC(=O)[C@@H](N)Cc1ccc(O)cc1)C(=O)O [metenkephalin] = ?
Response: 99.7%

Query: Under Calu-3: cell viability value of COc1ccc(NS(=O)(=O)c2ccc(/N=N/c3ccc(O)c(C(=O)O)c3)cc2)nn1 [salazodine] ?
Response: 108%

Query: Could you share what cell viability was measured for FC(F)OC(F)(F)C(F)Cl (stereo not drawn) [enflurane] , tested on Calu-3?
Response: 94.2%

Query: Lab request: please report cell viability under test system Calu-3 for CC(=O)NC1CCSC1=O (stereo not drawn) [citiolone]
Response: 98.4%

Query: Request - read-out cell viability | tested on Calu-3 | compound Cn1cnc([N+](=O)[O-])c1Sc1ncnc2[nH]cnc12 [azathioprine]
Response: 93.6%

Query: Given the entry O=C(CO)[C@@H](O)[C@@H](O)[C@H](O)CO [tagatose] , what cell viability was observed with Calu-3?
Response: 99.6%

Query: What reported cell viability corresponds to CC(O)CN1CCN(CC(=O)[O-])CCN(CC(=O)[O-])CCN(CC(=O)[O-])CC1.[Gd+3] (stereo not drawn) [gadoteridol] on Calu-3?
Response: 91.2%

Query: Which cell viability is reported with Calu-3 for this entry: C[n+]1c2cc(N)ccc2cc2ccc(N)cc21 [acriflavinium] ?
Response: 108%

Query: Query for Calu-3: what cell viability does the record show for NCCc1cc(O)c(O)cc1O [oxidopamine] ?
Response: 101%

Query: Param readout= cell viability; system= Calu-3; entry= CCN(CC)CCNC(=O)c1ccc(I)cc1 [I-BZA] ; returns value.
Response: 101%
